B1: MTMR15 (parent)
chain: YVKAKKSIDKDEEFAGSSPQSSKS

Variants of: B1
Assay: protein stability index of a GFP-peptide fusion (GPS, HEK-293T) (PSI 1-6); higher = more stable;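 also: lentivirally expressed fusions sorted by FACS into six bins by GFP to DsRed ratio, PSI derived from sequencing read proportions per bin multiplied by bin number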
Details: c terminus: a fixed tail appended
Please respond with reported protein stability index for every item in the list.
API doc: respond with a numeric literal and nothing else, no unit.

Returns the measured protein stability index for the input variant. Input: YGKAKKSIDKDEEFAGSSPQSSKS
5.2

Record: YVKAKKSIDKDEYFAGSSPQSSKS
2.71

Record: YVKAKKSIDKMEEFAGSSPQSSKS
2.56
